Tested on: CCRF-CEM
Assay: Antiproliferative activity against human CCRF-CEM cell line
Assay type: functional, cell-based
measurement_kind: pIC50
Give bare numbers, as −log10 of the molar value.

| compound | pIC50 |
| --- | --- |
| Nc1nc(N)c(CCCC(C(=O)C(F)(F)F)c2ccc(C(=O)NCc3nnn[nH]3)cc2)c(=O)[nH]1 (stereo not given) | 5.00 |
| Nc1nc(N)c(CCCC(C(=O)C(F)(F)F)c2ccc(C(=O)N[C@@H](CCc3nnn[nH]3)C(=O)O)cc2)c(=O)[nH]1 (stereo not given in full) | 7.40 |
| Nc1nc2c(c(=O)[nH]1)C[C@@H](CCc1ccc(C(=O)N[C@@H](CCC(=O)O)C(=O)O)cc1)CN2 [LOMETREXOL] | 6.70 |

Ask: I'd like to know its pIC50. The compound in question is Nc1nc(N)c(CCCC(C(=O)C(F)(F)F)c2ccc(C(=O)NC(CCC(=O)O)C(=O)O)cc2)c(O)n1 (stereo not given)
Result: 7.80
